assay: growth inhibitors of H69AR lung tumor, primary screen, human, duplicate replicates (AID 580); details: H69AR lung tumor cells viability, ATP luminescence, 72 h; at 10 µM;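 further: 100% = mean luminescence of untreated wells and 0% = no signal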
Calls of active or inactive are those of the source.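 How the source made its calls: active means viability at or under a set limit in both replicates, limit being median viability minus 3 SD (cut at about 48% in these data, passing the limit was not always enough); inconclusive means at or under the limit in just one replicate; inactive means at or above the limit in both replicates.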
Output constraint: value belongs to label 1 = active, label 0 = inactive

Use the examples below as a reference point.
| molecule | answer_label |
| --- | --- |
| Cn1c(SCC(=O)N2CCOCC2)nnc1-c1cnccn1 | label 0 |
| CCOC(=O)N1CCN(C(=O)CSCC(=O)Nc2nc(-c3ccc(OC)cc3)cs2)CC1 | label 0 |

query: Record lookup: outcome of this test for "COc1ccc(-c2onc(C)c2-c2ccccc2)c(O)c1" ?
result: label 1

query: Record lookup: outcome of this test for "COc1cc(OC)c(C2N(C)c3ccccc3N2C)cc1OC" ?
result: label 0

query: Record lookup: outcome of this test for "O=C(CCN1CCOCC1)Nc1cccc(Br)c1" ?
result: label 0

query: Record lookup: outcome of this test for Cc1nc2ccc(NC(=O)N3CCC(c4ccccc4)C3)cc2nc1C (stereo not given) ?
result: label 0

query: Record lookup: outcome of this test for CC1Cc2ccccc2N1NC(=O)c1ccc(Cl)c(S(N)(=O)=O)c1 (stereo not given) ?
result: label 0

query: Record lookup: outcome of this test for CCOc1ccccc1C(=O)NC(C)c1ccc2c(c1)OCO2 (stereo not given) ?
result: label 1

query: Record lookup: outcome of this test for CCCCN(C)CCCNC(=O)CC1Oc2ccccc2NC1=O (stereo not given) ?
result: label 0

* * *

Overview of reported viability across a group of molecules:
experiment: HUVEC growth inhibition – cell-based, human, primary screen (AID 575); details: HUVEC proliferation, CellTiter-Glo luminescence, 72 h; at 10 µM; stronger effect = lower value;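 further: 100% = median of untreated cell wells with 0.1% DMSO on each plate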
Field: numeric (%). Do not append units.

query: viability for CCOC(=O)C(NC(C)=O)(NS(=O)(=O)c1ccccc1)C(F)(F)F (stereo unspecified) ?
result: 101

query: viability for "CCCCOc1ccc(-c2nnc(N)s2)cc1" ?
result: 93.3

query: viability for "c1ccc(OCCCn2nnc(-c3cccnc3)n2)cc1" ?
result: 103

query: viability for "Cc1ccccc1-c1nc(CN2CCC(C(=O)NCCCN3CCCC3)CC2)c(C)o1" ?
result: 63

query: viability for "Cc1ccc(S(=O)(=O)N(CC(=O)NCc2ccco2)Cc2ccccc2F)cc1" ?
result: 104

* * *

Overview of reported inhibition across a group of molecules:
test: 384-well plate pilot, post-Golgi transport modulator project, inhibition of yeast transport mutant growth (AID 636); conditions: absorbance 615 nm, about 18 h, stronger effect = higher value
Field: numeric (%). Do not append units.

Worked examples follow.
| molecule | inhibition [%] |
| --- | --- |
| Cc1ccc(-c2nc3ncccc3o2)cc1NC(=O)c1ccco1 | -6.76 |
| O=C(CSc1nnc(-c2ccccc2)c(-c2ccccc2)n1)N1CCOCC1 | 0 |
| Cc1ccc(C)c(NC(=O)c2ccc3c(c2)N(Cc2ccc(F)cc2)C(=O)CS3=O)c1 (centres undefined) | -1.6 |

query: inhibition for O=C(C1CC1(c1ccccc1)c1ccccc1)N1CCOCC1 (centres undefined) ?
result: -5.6

query: inhibition for CCOC(=O)C1C2C=CC3(CN(c4cccc(Cl)c4)C(=O)C13)O2 (centres undefined) ?
result: -4.4

query: inhibition for "Cc1nc(Nc2nc(=O)c3ccccc3n2C)nc2c(C)cccc12" ?
result: -2.89

query: inhibition for COc1ccccc1-c1nc2n(n1)C(c1cccs1)C(C(=O)Nc1cccnc1)=C(C)N2 (centres undefined) ?
result: -2.43

Entry source: PubChem BioAssay
